Please go through the items and note down their AC50.
- Test Target: 5-hydroxytryptamine receptor 2A (Homo sapiens)
- Sequence (P28223 whole entry): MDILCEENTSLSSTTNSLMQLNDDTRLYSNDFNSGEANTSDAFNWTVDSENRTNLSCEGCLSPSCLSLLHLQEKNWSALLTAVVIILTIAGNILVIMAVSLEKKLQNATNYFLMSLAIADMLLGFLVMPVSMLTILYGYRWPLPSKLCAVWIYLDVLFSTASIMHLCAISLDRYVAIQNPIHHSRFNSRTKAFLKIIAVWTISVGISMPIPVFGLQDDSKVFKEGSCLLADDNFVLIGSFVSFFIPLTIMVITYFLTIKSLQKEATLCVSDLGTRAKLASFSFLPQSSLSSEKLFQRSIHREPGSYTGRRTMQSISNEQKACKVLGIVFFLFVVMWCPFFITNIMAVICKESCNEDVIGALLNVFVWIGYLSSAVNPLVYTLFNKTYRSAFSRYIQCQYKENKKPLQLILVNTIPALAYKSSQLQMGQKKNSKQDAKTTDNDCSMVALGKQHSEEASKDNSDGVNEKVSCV
- Assay type: functional, cell-based

Ask: # query: AC50 of entry CC(=O)c1ccc2c(c1)N(CCCN1CCN(CCO)CC1)c1ccccc1S2
Result: 0.87 µM

Ask: Can you look up the measured AC50 of O=C(O)CCCc1ccccc1 for me?
Result: > 30 µM

Ask: Which measured AC50 value corresponds to CN1CCCC(n2nc(Cc3ccc(Cl)cc3)c3ccccc3c2=O)CC1 (centres undefined) ?
Result: 4.6 µM

Ask: Return reported AC50; argument: O=C(O)Cc1cn(-c2ccccc2)nc1-c1ccc(Cl)cc1
Result: > 30 µM

Ask: Which measured AC50 value corresponds to COC(=O)C1=C(C)NC(C)=C(C(=O)OC(C)C)C1c1cccc2nonc12 (centres undefined) ?
Result: > 10 µM

Ask: Which AC50 value is on record for CC(C)Cc1ccc(CC(=O)O)cc1 ?
Result: > 30 µM

Ask: Recorded AC50 for CC(=O)OCC(=O)[C@@]12OC3(CCCC3)O[C@@H]1C[C@H]1[C@@H]3CCC4=CC(=O)C=C[C@]4(C)[C@@]3(F)[C@@H](O)C[C@@]12C [AMCINONIDE] , please?
Result: > 10 µM

Ask: Which AC50 is reported for this compound? C#CCN[C@@H]1CCc2ccccc21
Result: > 30 µM

Ask: Quick one: AC50 of CO/N=C(\C(=O)N[C@@H]1C(=O)N2C(C(=O)OCOC(=O)C(C)(C)C)=C(C)CS[C@H]12)c1csc(N)n1 ?
Result: > 30 µM

====

- Test Target: Histamine H3 receptor (Homo sapiens, UniProt Q9Y5N1)
- Sequence (Q9Y5N1 whole entry): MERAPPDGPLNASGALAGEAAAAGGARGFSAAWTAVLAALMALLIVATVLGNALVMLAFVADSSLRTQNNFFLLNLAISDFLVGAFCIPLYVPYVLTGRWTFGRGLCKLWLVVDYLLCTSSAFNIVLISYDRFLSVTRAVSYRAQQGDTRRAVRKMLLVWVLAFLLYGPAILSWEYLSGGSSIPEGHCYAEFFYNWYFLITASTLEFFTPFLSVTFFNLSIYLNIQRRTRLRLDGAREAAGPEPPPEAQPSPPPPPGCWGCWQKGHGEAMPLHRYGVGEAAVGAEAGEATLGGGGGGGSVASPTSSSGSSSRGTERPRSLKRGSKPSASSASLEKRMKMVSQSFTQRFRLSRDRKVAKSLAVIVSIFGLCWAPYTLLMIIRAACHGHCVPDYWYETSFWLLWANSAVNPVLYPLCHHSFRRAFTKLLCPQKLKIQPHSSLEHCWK
Readout Label: AC50

Ask: Name the reported AC50 value associated with the molecule CCCC[N+]1(C)[C@@H]2C[C@@H](OC(=O)[C@H](CO)c3ccccc3)C[C@H]1[C@@H]1O[C@@H]12 (stereo not given in full)
Result: > 30 µM

Ask: Please give the measured AC50 for this molecule: O=[N+]([O-])c1cncn1CCN1CCOCC1
Result: > 30 µM

Ask: Given N/N=c1/cc2c(n[nH]1)CCN(C(=O)c1ccccc1)C2 , state its recorded AC50.
Result: > 30 µM

Ask: Endpoint output: AC50 of CC(C(=O)O)c1ccc(N2CC=CC2)c(Cl)c1 (stereo not given) . Value?
Result: > 30 µM

Ask: I have this molecule here, Oc1cccc2cccnc12 , and I need its recorded AC50.
Result: > 30 µM

====

- Test Target: UniProt P35372
- Sequence (P35372 whole entry): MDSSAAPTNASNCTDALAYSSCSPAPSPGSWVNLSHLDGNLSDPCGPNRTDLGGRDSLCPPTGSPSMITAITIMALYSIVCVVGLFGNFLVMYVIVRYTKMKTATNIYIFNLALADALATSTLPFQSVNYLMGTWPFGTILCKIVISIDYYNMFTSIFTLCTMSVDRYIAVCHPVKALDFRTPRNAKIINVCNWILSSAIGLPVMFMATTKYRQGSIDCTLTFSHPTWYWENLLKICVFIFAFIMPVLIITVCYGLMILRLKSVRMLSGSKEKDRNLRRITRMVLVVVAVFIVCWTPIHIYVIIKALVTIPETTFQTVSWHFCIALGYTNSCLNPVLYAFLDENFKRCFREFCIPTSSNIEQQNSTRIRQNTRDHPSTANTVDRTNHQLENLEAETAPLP
- Experimental Protocol: biochemical
- Type: functional
Readout Label: AC50

Ask: May I ask what AC50 has been recorded for CCC(C(=O)O)c1ccc(CC(C)C)cc1 (stereo not drawn) [BUTIBUFEN] ?
Result: > 30 µM

Ask: Requested field: AC50. Item: N/N=c1/cc2c(n[nH]1)CCN(C(=O)c1ccccc1)C2 [ENDRALAZINE]
Result: > 30 µM

Ask: May I ask what AC50 has been recorded for OCCN1CCN(CCCN2c3ccccc3C=Cc3ccccc32)CC1 [OPIPRAMOL] ?
Result: 15 µM

Ask: Which value of AC50 has been reported for CS(=O)(=O)c1ccc([C@@H](O)[C@@H](CO)NC(=O)C(Cl)Cl)cc1 [THIAMPHENICOL] in the records?
Result: > 30 µM

Ask: Value lookup for AC50; key = C[N+](C)(C)CC(=O)O [BETAINE]
Result: > 30 µM

Ask: Query (compound): O=C(Nc1ccccc1)OCC(CN1CCCCC1)OC(=O)Nc1ccccc1 (stereo not drawn) [DIPERODON] ; field requested: AC50
Result: 4.1 µM

Ask: Give the measured AC50 of CO/N=C(\C(=O)N[C@@H]1C(=O)N2C(C(=O)[O-])=C(C[N+]3(C)CCCC3)CS[C@H]12)c1csc(N)n1 .
Result: > 30 µM

Ask: Please report the recorded AC50 for O=C(O)Cc1cn(-c2ccccc2)nc1-c1ccc(Cl)cc1 [LONAZOLAC] .
Result: > 30 µM

Ask: AC50 lookup needed for O=C(C[S+]([O-])C(c1ccccc1)c1ccccc1)NO (stereo not drawn) , thanks.
Result: > 30 µM

Ask: Consider the compound shown here: CCCCN1CCCCC1C(=O)Nc1c(C)cccc1C (stereo not drawn) [BUPIVACAINE] What is its recorded AC50?
Result: > 30 µM

Ask: What does the data say about its AC50? Entry: CC[C@]1(O)C[C@@H]2CN(CCc3c([nH]c4ccccc34)[C@@](C(=O)OC)(c3cc4c(cc3OC)N(C)[C@H]3[C@@](O)(C(N)=O)[C@H](O)[C@]5(CC)C=CCN6CC[C@]43[C@@H]65)C2)C1 [VINDESINE]
Result: > 30 µM

Ask: Given the compound COC(=O)C1=C(C)NC(C)=C(C(=O)OCC(C)C)C1c1ccccc1[N+](=O)[O-] (stereo not drawn) [NISOLDIPINE] , what is its reported AC50?
Result: > 30 µM

Ask: Fill in the blank: the reported AC50 of COc1c(N2CCNC(C)C2)c(F)cc2c(=O)c(C(=O)O)cn(C3CC3)c12 (stereo not drawn) [GATIFLOXACIN] is ____.
Result: 28 µM

Ask: Given the entry CC/C=C\C/C=C\C/C=C\CCCCCCCC(=O)O [LINOLENIC ACID] , report its measured AC50.
Result: > 30 µM

Ask: Name the recorded AC50 for C#CCN[C@@H]1CCc2ccccc21 [RASAGILINE] .
Result: > 30 µM

Ask: Quick one: AC50 of CCCCCCC(C)(C)c1cc(O)c2c(c1)OC(C)(C)C1CCC(=O)CC21 (stereo not drawn) [NABILONE] ?
Result: > 30 µM

Ask: Given the entry COc1c(C)c2c(c(O)c1C/C=C(\C)CCC(=O)OCCN1CCOCC1)C(=O)OC2 [MYCOPHENOLATE MOFETIL] , report its measured AC50.
Result: > 30 µM

Ask: Given the entry N[C@@H](CSCC(=O)O)C(=O)O [CARBOCYSTEINE] , report its measured AC50.
Result: > 30 µM

====

Could you please report measured AC50 for the items listed next?
- Test Target: Motilin receptor (Homo sapiens)
- Sequence (O43193 whole entry): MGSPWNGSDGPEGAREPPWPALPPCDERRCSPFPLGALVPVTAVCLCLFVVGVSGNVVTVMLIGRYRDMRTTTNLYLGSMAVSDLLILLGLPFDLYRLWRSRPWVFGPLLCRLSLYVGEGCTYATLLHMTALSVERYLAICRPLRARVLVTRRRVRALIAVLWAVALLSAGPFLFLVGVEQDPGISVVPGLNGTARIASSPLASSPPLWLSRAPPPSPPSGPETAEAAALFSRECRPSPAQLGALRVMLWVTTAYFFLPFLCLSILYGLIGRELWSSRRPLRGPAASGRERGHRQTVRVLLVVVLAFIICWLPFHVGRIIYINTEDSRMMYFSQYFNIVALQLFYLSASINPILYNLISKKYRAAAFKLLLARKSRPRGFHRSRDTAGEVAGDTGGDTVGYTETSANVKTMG

Ask: Any idea what its AC50 is? The compound is COc1c(C)c2c(c(O)c1C/C=C(\C)CCC(=O)OCCN1CCOCC1)C(=O)OC2 [MYCOPHENOLATE MOFETIL]
Result: > 30 µM

Ask: # AC50 lookup, item CC(=O)O[C@@]12CO[C@@H]1C[C@H](O)[C@@]1(C)C(=O)[C@H](O)C3=C(C)[C@@H](OC(=O)[C@H](O)[C@@H](NC(=O)OC(C)(C)C)c4ccccc4)C[C@@](O)([C@@H](OC(=O)c4ccccc4)[C@H]21)C3(C)C [DOCETAXEL ANHYDROUS]
Result: > 30 µM

Ask: Reported AC50, compound CC(C)C(=O)OCC(=O)[C@@]12O[C@H](C3CCCCC3)O[C@@H]1C[C@H]1[C@@H]3CCC4=CC(=O)C=C[C@]4(C)[C@H]3[C@@H](O)C[C@@]12C [CICLESONIDE] : ____
Result: > 10 µM

Ask: Item under review: C[N+](C)(C)CCOC(N)=O . Reported AC50?
Result: > 10 µM

Ask: For the compound shown here, C[C@]12CCC(=O)C=C1CC[C@@H]1[C@@H]2CC[C@@]2(C)[C@H]1CC[C@]2(C)O , give the reported AC50.
Result: > 30 µM

Ask: Requested field: AC50. Item: CCCCCCCCOc1ccccc1C(=O)Nc1ccc(C(=O)OCC[N+](C)(CC)CC)cc1 [OTILONIUM BROMIDE]
Result: 5.7 µM

Ask: Please give the measured AC50 for this compound: Cc1cc(-c2ccccc2)nnc1NCCN1CCOCC1
Result: > 10 µM

# credit: ChEMBL document CHEMBL5291721
